Reference source for all entries: patent US20210388087A1

# Study system: T1, CD3 epsilon homodimer protein (UniProt P07766 23-126)
# T1 construct: also called CD3 (CD3 epsilon)
# T1 sequence (P07766 23-126): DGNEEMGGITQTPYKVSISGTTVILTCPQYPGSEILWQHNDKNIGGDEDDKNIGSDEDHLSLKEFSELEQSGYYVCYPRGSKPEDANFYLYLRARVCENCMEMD
# Test protocol: SPR Biacore T200, CD3e homodimer on chip, vs unaltered GLS3000 antibody
Measured quantity: ratio of amounts bound (Z=Y/X)
Field format: numeric only.

Binder	ratio of amounts bound (Z=Y/X)
GLS3000 G89R (antibody, name in Kabat numbering, V domains shown, one-arm IgG as m2) VH: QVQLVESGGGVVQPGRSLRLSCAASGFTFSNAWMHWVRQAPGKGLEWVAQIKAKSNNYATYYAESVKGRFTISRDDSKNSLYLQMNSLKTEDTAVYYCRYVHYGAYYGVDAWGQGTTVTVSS VL: DIVMTQSPLSLPVTPGEPASISCRSSQSLVHSNRNTYLHWYQQKPGQAPRLLIYKVSNRFSGVPDRFSGSGSGTDFTLKISRVEAEDVGVYYCRQGTQVPYTFGQGTKLEIK	0.19
GLS3000 G89V (antibody, name in Kabat numbering, V domains shown, one-arm IgG as m2) VH: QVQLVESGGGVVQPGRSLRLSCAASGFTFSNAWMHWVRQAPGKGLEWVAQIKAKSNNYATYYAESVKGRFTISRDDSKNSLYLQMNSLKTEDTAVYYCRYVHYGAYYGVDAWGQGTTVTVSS VL: DIVMTQSPLSLPVTPGEPASISCRSSQSLVHSNRNTYLHWYQQKPGQAPRLLIYKVSNRFSGVPDRFSGSGSGTDFTLKISRVEAEDVGVYYCVQGTQVPYTFGQGTKLEIK	1.63

Here's the next entry for you.
[Q] Looking for the measured ratio of amounts bound (Z=Y/X) of GLS3000 S52A (antibody, name in Kabat numbering, V domains shown, one-arm IgG as m2) VH: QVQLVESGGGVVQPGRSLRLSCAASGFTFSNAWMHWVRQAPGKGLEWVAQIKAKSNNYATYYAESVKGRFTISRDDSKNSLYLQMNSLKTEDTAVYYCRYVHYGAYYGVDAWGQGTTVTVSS VL: DIVMTQSPLSLPVTPGEPASISCRSSQSLVHSNRNTYLHWYQQKPGQAPRLLIYKVANRFSGVPDRFSGSGSGTDFTLKISRVEAEDVGVYYCGQGTQVPYTFGQGTKLEIK , can you help?
[A] 0.93
